- Tested on: Staphylococcus aureus
- TEST SUMMARY: Antibacterial activity against Staphylococcus aureus ATCC 29213 after 24 hrs by broth microdilution method
- Assay type: functional
- CONDITION SET: ATCC 29213, 24 h
EXPERIMENTAL READOUT: MIC

Please review the following examples before continuing.
[
  {
    "COMPOUND": "CCNC(=O)Nc1cc(-c2nc(C(F)(F)F)cs2)c(-c2cc(-c3n[nH]c(=O)o3)cnc2N2C3CCC2CN(C)C3)cn1",
    "TARGET OF ASSAY": "Staphylococcus aureus",
    "EXPERIMENTAL RESULT": "< 0.06 µg/mL"
  },
  {
    "COMPOUND": "CCNC(=O)Nc1cc(-c2nc(C(F)(F)F)cs2)c(-c2cc3ncccc3nc2N2C3CCC2CN(C)C3)cn1",
    "TARGET OF ASSAY": "Staphylococcus aureus",
    "EXPERIMENTAL RESULT": "< 0.06 µg/mL"
  },
  {
    "COMPOUND": "CCNC(=O)Nc1cc(-c2nc(C3CC3)cs2)c(-c2cc(-c3n[nH]c(=O)o3)cnc2N2C3CCC2CN(C)C3)cn1",
    "TARGET OF ASSAY": "Staphylococcus aureus",
    "EXPERIMENTAL RESULT": "< 0.06 µg/mL"
  }
]

Moving on to the next compound.
Given CC(C)(O/N=C(\C(=O)N[C@@H]1C(=O)N2C(C(=O)[O-])=C(C[n+]3ccccc3)CS[C@H]12)c1csc(N)n1)C(=O)O [CEFTAZIDIME] , respond with its MIC.
16 µg/mL

----------
- System: Acinetobacter baumannii
- TEST SUMMARY: Antibacterial activity against Acinetobacter baumannii ARC3486 after 24 hrs by broth microdilution method
- Format: functional
- CONDITION SET: ARC3486, 24 h
EXPERIMENTAL READOUT: MIC (µg/mL)
Give bare numbers, in µg/mL.

[
  {
    "SMILES": "CCNC(=O)Nc1cc(-c2nc(C3CC3)cs2)c(-c2cc(-c3n[nH]c(=O)o3)cnc2N2C3CCC2CN(C)C3)cn1",
    "UNITS": "µg/mL",
    "MIC": 2
  },
  {
    "SMILES": "CCNC(=O)Nc1cc(-c2nc(C(F)(F)F)cs2)c(-c2cc(-c3n[nH]c(=O)o3)cnc2N2C3CCC2CN(C)C3)cn1",
    "UNITS": "µg/mL",
    "MIC": 2
  }
]

Continue with the next molecule.
Identify MIC associated with the molecule CCNC(=O)Nc1cc(-c2nc(C(F)(F)F)cs2)c(-c2cc3ncccc3nc2N2C3CCC2CN(C)C3)cn1
2

----------
- TARGET OF ASSAY: DNA topoisomerase 4 subunit B (Escherichia coli K-12, UniProt P20083)
- Sequence (P20083 whole entry): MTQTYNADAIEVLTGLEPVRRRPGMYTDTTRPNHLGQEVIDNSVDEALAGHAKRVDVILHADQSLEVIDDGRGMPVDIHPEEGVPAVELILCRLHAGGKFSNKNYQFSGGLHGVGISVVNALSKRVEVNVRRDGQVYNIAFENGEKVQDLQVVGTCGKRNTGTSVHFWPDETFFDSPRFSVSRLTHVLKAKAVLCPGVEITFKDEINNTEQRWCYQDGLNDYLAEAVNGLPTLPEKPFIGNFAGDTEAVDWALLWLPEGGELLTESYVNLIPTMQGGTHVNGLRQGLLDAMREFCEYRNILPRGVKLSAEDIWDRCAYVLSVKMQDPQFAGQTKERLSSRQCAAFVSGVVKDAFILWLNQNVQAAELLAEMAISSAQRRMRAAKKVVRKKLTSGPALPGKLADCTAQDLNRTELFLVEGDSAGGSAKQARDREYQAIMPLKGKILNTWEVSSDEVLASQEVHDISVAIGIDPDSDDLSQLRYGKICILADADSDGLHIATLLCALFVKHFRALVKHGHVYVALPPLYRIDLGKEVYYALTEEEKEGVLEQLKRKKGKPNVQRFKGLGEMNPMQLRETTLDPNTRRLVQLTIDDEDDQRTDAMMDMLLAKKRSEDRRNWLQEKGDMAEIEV
- TEST SUMMARY: Inhibition of Escherichia coli ParE
pIC50: −log10 of the molar value.
Would you mind labelling by pIC50? At or over 8 is y, under is n.

[
  {
    "MOLECULE": "CCNC(=O)Nc1cc(-c2nc(C(F)(F)F)cs2)c(-c2cc(-c3n[nH]c(=O)o3)cnc2N2CCC(N)CC2)cn1",
    "CLASS LABEL": "n"
  }
]

Now turn to the next molecule.
Answer whether pIC50 of CCNC(=O)Nc1cc(-c2nc(C(F)(F)F)cs2)c(-c2cc3ncccc3nc2N2[C@@H]3CC[C@H]2C[C@@H](N)C3)cn1 is greater than or equal to 8.
n
